Reported values of aptazyme ON/OFF ratio for individual entries
B1: Pistol ribozyme (parent)
chain: GGGUCGUUGUUCCAUAAUCGCGUGGAUAUGGCACGCAAGUUUCUACCGGGCACCGUAAAUGUCCGACUGGAGCCGUUCGGGCGGCUAUAAACAGACCUCAGGCCCGAAGCGUGGCGGCACCUGCCGCCGGUGGUAAAAAAGAUCGGAAGAGCACACGUCU

variants of: B1; assay: aptazyme ON/OFF ratio, guanine; higher = stronger switching; co-transcriptional cleavage with and without guanine
# respond with the number and nothing more

The cases that follow already have their aptazyme ON/OFF ratio on record.
INSERT INTO assay_data (variant_annotation, data_value) VALUES
  ('U10C C12G C13G', 1.09),
  ('U7C G9C U10A U11C C12G C13A', 1.07),
  ('U7C U8A G9A C12A C13G', 1.2),
  ('U7A U8C G9U U10G U11A C12G C13U', 1.21),
  ('U7G U8C U10A U11G C12G C13A', 1.22),
  ('U7G G9A U10A U11G C12U', 1.24),
  ('U7G U8C G9U U10G U11A C12A C13U', 1.38),
  ('U8G G9U U10C U11A C12G C13A', 1.08),
  ('U10G U11C C12U', 1.08),
  ('U7A U8A G9U U10C U11C C13U', 1.04);

Exam item: For the variant shown here, U8G U10G U11G C12G C13U , give the reported aptazyme ON/OFF ratio.
Marked response: 1.29

Exam item: For the variant shown here, U8C U10A C13G , give the reported aptazyme ON/OFF ratio.
Marked response: 1.05

Exam item: For the variant shown here, U7A G9C U10C C12A C13G , give the reported aptazyme ON/OFF ratio.
Marked response: 1.04

Exam item: For the variant shown here, G9U U10A U11C C12A C13G , give the reported aptazyme ON/OFF ratio.
Marked response: 0.991

Exam item: For the variant shown here, U7A U11A , give the reported aptazyme ON/OFF ratio.
Marked response: 1.24

Exam item: For the variant shown here, U7A U8C G9A U10G U11A C13U , give the reported aptazyme ON/OFF ratio.
Marked response: 1.04

Exam item: For the variant shown here, U8A G9C U10C U11A C12A C13G , give the reported aptazyme ON/OFF ratio.
Marked response: 1.05

Exam item: For the variant shown here, U7A G9A U10G C12G , give the reported aptazyme ON/OFF ratio.
Marked response: 1.21

Exam item: For the variant shown here, U7G G9A U11C C12A C13G , give the reported aptazyme ON/OFF ratio.
Marked response: 1.14

Exam item: For the variant shown here, U8A G9A U11A C13A , give the reported aptazyme ON/OFF ratio.
Marked response: 1.26

Exam item: For the variant shown here, U7G U8A G9A C12A C13A , give the reported aptazyme ON/OFF ratio.
Marked response: 1.25

Exam item: For the variant shown here, G9A U11A C12G , give the reported aptazyme ON/OFF ratio.
Marked response: 1.51

Exam item: For the variant shown here, U7C U10A C13A , give the reported aptazyme ON/OFF ratio.
Marked response: 1.06

Exam item: For the variant shown here, U8C G9C U10G U11G , give the reported aptazyme ON/OFF ratio.
Marked response: 1.11

Exam item: For the variant shown here, U8G U10G U11A C12G , give the reported aptazyme ON/OFF ratio.
Marked response: 1.28

Exam item: For the variant shown here, U7A U8G G9U U10C U11G C12A C13A , give the reported aptazyme ON/OFF ratio.
Marked response: 1.16

Exam item: For the variant shown here, U8C G9C U10A U11A C12A C13G , give the reported aptazyme ON/OFF ratio.
Marked response: 1.11

Exam item: For the variant shown here, U7C U8G G9C U10G U11C C12U C13G , give the reported aptazyme ON/OFF ratio.
Marked response: 1.25

Exam item: For the variant shown here, U7C U8G G9U U11G C12U C13U , give the reported aptazyme ON/OFF ratio.
Marked response: 1.29

Exam item: For the variant shown here, G9A U10G U11C C12A , give the reported aptazyme ON/OFF ratio.
Marked response: 1.53

Exam item: For the variant shown here, U7G U8A G9A U10G U11A C12G C13U , give the reported aptazyme ON/OFF ratio.
Marked response: 1.14

Exam item: For the variant shown here, G9U U10A U11G C12A C13A , give the reported aptazyme ON/OFF ratio.
Marked response: 1.14

Exam item: For the variant shown here, U7G U8G U10G , give the reported aptazyme ON/OFF ratio.
Marked response: 1.37

Exam item: For the variant shown here, U7G U11C C12A C13U , give the reported aptazyme ON/OFF ratio.
Marked response: 1.22

Exam item: For the variant shown here, U7C U8C G9U U10G U11A C12G C13A , give the reported aptazyme ON/OFF ratio.
Marked response: 1.06

Exam item: For the variant shown here, U7G U8G G9A U10C C12A C13A , give the reported aptazyme ON/OFF ratio.
Marked response: 1.13

Exam item: For the variant shown here, U7C G9U U10A C12U C13U , give the reported aptazyme ON/OFF ratio.
Marked response: 1.22

Exam item: For the variant shown here, U7G U8A G9U U11G C12G C13A , give the reported aptazyme ON/OFF ratio.
Marked response: 1.01

Exam item: For the variant shown here, U7A G9U U10A U11G C12A C13U , give the reported aptazyme ON/OFF ratio.
Marked response: 1.1

Exam item: For the variant shown here, U8G G9C U10C U11A C13U , give the reported aptazyme ON/OFF ratio.
Marked response: 1.1

Just for reference, the RNAGym collection of RNA variant scans (doi:10.1021/acssynbio.7b00057) is where these values come from.
